assay: NCI Yeast Anticancer Drug Screen. Data for the rad50 strain (AID 155); conditions: S. cerevisiae rad50 strain growth inhibition; at 100.0 µM
Compounds without any hit were thinned out: in the full panel of roughly 79,000, 15% have a hit. Calls of active or inactive are those of the source. No stated cut-off is given here; in the data, active means growth inhibition above about 70%; inactive means the rest.
Outcomes: active, inactive

{"MOLECULE": "CCOC(=O)C(NC(=O)c1ccccc1)(N1CCN(c2cc3c(cc2F)c(=O)c(C(=O)O)cn3C2CC2)CC1)C(F)(F)F (stereo not drawn)", "LABEL_VALUE": "active"}
{"MOLECULE": "CN=C(N)N/N=C/c1ccc2c(c1)Cc1ccccc1-2", "LABEL_VALUE": "active"}
{"MOLECULE": "CCCc1cc(C(=O)OCC)cc(CCC)c1O", "LABEL_VALUE": "active"}
{"MOLECULE": "COc1ccccc1/C=C1\\Sc2scc(-c3cccc([N+](=O)[O-])c3)[n+]2C1=O", "LABEL_VALUE": "active"}
{"MOLECULE": "Cc1ccc2ccc3cccc4ccc1c2c34", "LABEL_VALUE": "inactive"}
{"MOLECULE": "CC(O)C(O)C(O)C(/C=N\\Nc1ccccc1)=N/Nc1ccccc1 (stereo not drawn)", "LABEL_VALUE": "active"}
{"MOLECULE": "O=[N+]([O-])/C=C/c1ccc2ccccc2c1", "LABEL_VALUE": "active"}
{"MOLECULE": "CCOc1ccc2c(c1)c(CC(=O)O)cn2C", "LABEL_VALUE": "active"}
{"MOLECULE": "COc1ccc(-c2cn(-c3ccc(I)cc3)c3ncnc(N)c23)cc1", "LABEL_VALUE": "inactive"}
{"MOLECULE": "OC(c1ccc(F)cc1)(c1ccc(F)cc1)C1CC1", "LABEL_VALUE": "active"}
{"MOLECULE": "COC(=O)C1=C(C)NC(C)=C(C(=O)OC)C1c1cccc(/[N+]([O-])=C/c2ccccc2)c1", "LABEL_VALUE": "active"}
{"MOLECULE": "COc1ccc2ccc3ccccc3c2c1C=O", "LABEL_VALUE": "active"}
{"MOLECULE": "O=C1OC(=O)C2CCCC3CCCC1C32 (stereo not drawn)", "LABEL_VALUE": "active"}
{"MOLECULE": "O=C(CCCN1CCC(O)(c2ccc(Cl)cc2)CC1)c1ccc(F)cc1", "LABEL_VALUE": "inactive"}
{"MOLECULE": "CC(C)(C)c1nc2c(o1)C(=O)c1ccccc1C2=O", "LABEL_VALUE": "active"}
{"MOLECULE": "CC(Br)C(=O)c1ccc2cc(Br)c3ccccc3c2c1 (stereo not drawn)", "LABEL_VALUE": "inactive"}
{"MOLECULE": "O=Cc1cccc2ccc3ccccc3c12", "LABEL_VALUE": "active"}
{"MOLECULE": "CC(/C=C/c1ccc(Cl)cc1)=N\\NC(=S)NCC(C)C", "LABEL_VALUE": "inactive"}
{"MOLECULE": "COc1ccc(N=C2C(=O)Nc3ccc(Br)cc32)cc1", "LABEL_VALUE": "inactive"}
{"MOLECULE": "O=C(O)c1ccccc1-c1ccccc1C(=O)Nc1ccc2c(c1)Cc1ccccc1-2", "LABEL_VALUE": "active"}
{"MOLECULE": "[O-][n+]1c2ccc(O)cc2nc2ccc(Br)cc21", "LABEL_VALUE": "active"}
{"MOLECULE": "O=[N+]([O-])c1cc2no[n+]([O-])c2cc1N1CCCCC1", "LABEL_VALUE": "active"}
{"MOLECULE": "Oc1ccc(NCn2c(=S)sc3ccccc32)cc1", "LABEL_VALUE": "active"}
{"MOLECULE": "Brc1ccc(-c2cc3c(cc2C2SCCS2)OCO3)cc1", "LABEL_VALUE": "inactive"}
{"MOLECULE": "S=C(S)NN1CCOCC1", "LABEL_VALUE": "inactive"}
{"MOLECULE": "OCC(Cn1cncn1)(c1ccc(F)cc1F)n1cncn1 (stereo not drawn)", "LABEL_VALUE": "inactive"}
{"MOLECULE": "O=CNc1ccc2c(c1)C(=O)c1ccccc1-2", "LABEL_VALUE": "active"}
{"MOLECULE": "Cc1c(Cl)ccc2c1S(=O)(=O)c1cccc(Cl)c1-2", "LABEL_VALUE": "inactive"}
{"MOLECULE": "Cc1c(C(Cc2ccccc2N(C)C(=O)/C=C\\C(=O)O)c2c[nH]c3ccccc23)c2ccccc2n1C (stereo not drawn)", "LABEL_VALUE": "inactive"}
{"MOLECULE": "CN1Cc2ccccc2/C=C\\c2ccccc21", "LABEL_VALUE": "inactive"}
{"MOLECULE": "Cn1ccnc1Oc1ccc(Cl)cc1", "LABEL_VALUE": "active"}
{"MOLECULE": "CSC1=NNC(SC)=NN1", "LABEL_VALUE": "active"}
{"MOLECULE": "O=[N+]([O-])c1cccc2nccc(NCCCO)c12", "LABEL_VALUE": "active"}
{"MOLECULE": "C/C(=N/NC(=S)N1CCCCCC1)c1cccc(/C(C)=N\\NC(=S)N2CCCCCC2)n1", "LABEL_VALUE": "active"}
{"MOLECULE": "CC(=O)SCCC[Si](C)(C)CCCSC(C)=O", "LABEL_VALUE": "inactive"}
{"MOLECULE": "COC(=O)c1cc(-c2ccc(C)cc2)[nH]c(=O)c1C#N", "LABEL_VALUE": "inactive"}
{"MOLECULE": "COc1ccccc1C(=O)OCC1CCCN2CCCCC12 (stereo not drawn)", "LABEL_VALUE": "active"}
{"MOLECULE": "O=C1c2ccccc2-c2nc3ccccc3nc21", "LABEL_VALUE": "active"}
{"MOLECULE": "Nc1ncncc1C(C1=C(O)COC1=O)C1=C(O)COC1=O", "LABEL_VALUE": "inactive"}
{"MOLECULE": "CCOC(=O)C1=C(C(=O)c2ccccc2)C(c2ccccc2[N+](=O)[O-])C(C(=O)c2ccccc2)=C(C(=O)OCC)N1", "LABEL_VALUE": "inactive"}
{"MOLECULE": "Cc1ccc(S(=O)(=O)NC(=O)NC2=NC(C)(C)N(c3ccc(Cl)c(Cl)c3)C(N)=N2)cc1", "LABEL_VALUE": "inactive"}
{"MOLECULE": "O=C(Nc1ccccc1)OCCc1ccc(Cl)c(Cl)c1", "LABEL_VALUE": "inactive"}
{"MOLECULE": "O=C(Cc1csc2[n+]1C(=O)/C(=C/c1ccc(Cl)cc1)S2)Nc1ccccc1", "LABEL_VALUE": "active"}
